Data provenance: patent US20150045540A1

- System: Hepatocyte Growth Factor (HGF), human (human, UniProt P14210 32-728)
- Sequence (P14210 32-728): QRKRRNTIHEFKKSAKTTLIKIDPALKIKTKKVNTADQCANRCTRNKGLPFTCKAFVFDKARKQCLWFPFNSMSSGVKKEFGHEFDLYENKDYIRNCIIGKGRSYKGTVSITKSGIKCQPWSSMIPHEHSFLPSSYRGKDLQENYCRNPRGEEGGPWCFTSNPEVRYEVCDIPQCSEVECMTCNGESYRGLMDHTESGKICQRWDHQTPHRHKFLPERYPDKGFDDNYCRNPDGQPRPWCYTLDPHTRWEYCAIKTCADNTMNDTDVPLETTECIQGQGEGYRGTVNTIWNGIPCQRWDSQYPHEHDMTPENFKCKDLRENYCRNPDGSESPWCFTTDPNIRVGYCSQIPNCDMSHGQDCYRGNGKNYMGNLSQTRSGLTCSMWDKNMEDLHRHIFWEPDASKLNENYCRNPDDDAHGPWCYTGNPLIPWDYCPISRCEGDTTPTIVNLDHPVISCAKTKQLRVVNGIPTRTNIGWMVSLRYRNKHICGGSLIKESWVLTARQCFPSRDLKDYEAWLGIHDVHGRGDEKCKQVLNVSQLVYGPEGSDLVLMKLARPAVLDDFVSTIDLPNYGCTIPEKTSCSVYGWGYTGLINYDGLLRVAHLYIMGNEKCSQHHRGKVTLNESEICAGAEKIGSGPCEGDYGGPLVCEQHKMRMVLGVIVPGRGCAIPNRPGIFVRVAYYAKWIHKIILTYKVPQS
- Protocol notes: ELISA
Provide the reported EC50 of each item.
// note: answer is a bare numeric in nM

// Input: HC 6/SLC 4 (antibody) chain 1: GQGTLVTVSSASTKGPQPVLHQPPAMSSALGTTIRLTCTLRNDHDIGVYSVYWYQQRPGHPPRFLLRYFSQSDKSQGPQVPPRFSGSKDVARNRGYLSISELQPEDEAMYYCAMGARSRCWPRGFQSKHNSVTHVFGSGTQLTVLSQPKATPSVTLFPPSSEELQANKATLVCLMNDFYPGILTVTWKADGTPITQGVEMTTPSKQSNNKYAASSYLSLTPEQWRSRRSYSCQVMHEGSTVEKTVAPAECS chain 2: MSWAPVLLMLFVYCTGCGPQPVLHQPPAMSSALGTTIRLTCTLRNDHDIGVYSVYWYQQRPGHPPRFLLRYFSQSDKSQGPQVPPRFSGSKDVARNRGYLSISVTHVFGSGTQLTVLSQPKQVQLVQ . Output its EC50 only.
0.06

// Input: HC 7/SLC 15 (antibody) chain 1: GQGTLVTVSSASTKGPSQPVLHQPPAMSSALGTTIRLTCTLRNDHDIGVYSVYWYQQRPGHPPRFLLRYFSQSDKSQGPQVPPRFSGSKDVARNRGYLSISELQPEDEAMYYCAMGARSRCWPRGFQSKHNSVTHVFGSGTQLTVLSQPKATPSVTLFPPSSEELQANKATLVCLMNDFYPGILTVTWKADGTPITQGVEMTTPSKQSNNKYAASSYLSLTPEQWRSRRSYSCQVMHEGSTVEKTVAPAECS chain 2: MSWAPVLLMLFVYCTGCGPQPVLHQPPAMSSALGTTIRLTCTLRNDHDIGVYSVYWYQQRPGHPPRFLLRYFSQSDKSQGPQVPPRFSGSKDVARNRGYLSISVTHVFGSGTQLTVLSQPKATPSVTGGGGSQVQLVQ . Output its EC50 only.
0.053
